Molecular target: Amine oxidase [flavin-containing] A (Rattus norvegicus, UniProt P21396)
Sequence (P21396 whole entry): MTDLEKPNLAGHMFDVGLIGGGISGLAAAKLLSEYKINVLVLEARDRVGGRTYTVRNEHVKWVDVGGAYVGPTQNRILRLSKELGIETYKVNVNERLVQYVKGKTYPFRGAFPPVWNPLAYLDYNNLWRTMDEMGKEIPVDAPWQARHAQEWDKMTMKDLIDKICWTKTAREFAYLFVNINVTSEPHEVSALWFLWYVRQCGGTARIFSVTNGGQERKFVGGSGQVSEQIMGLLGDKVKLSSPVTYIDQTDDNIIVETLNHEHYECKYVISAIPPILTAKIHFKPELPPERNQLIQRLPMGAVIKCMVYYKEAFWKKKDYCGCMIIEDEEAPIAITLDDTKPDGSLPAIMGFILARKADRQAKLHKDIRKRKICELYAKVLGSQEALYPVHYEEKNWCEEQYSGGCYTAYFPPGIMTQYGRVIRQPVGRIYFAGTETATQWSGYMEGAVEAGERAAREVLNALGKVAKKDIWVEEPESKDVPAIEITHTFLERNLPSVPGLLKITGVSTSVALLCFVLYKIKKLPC
Test: Percent inhibition against monoamine oxidase A at 1 uM concentration.
Result Type: inhibition at 1 µM (%)

O=S1(=O)c2c(CO)cccc2Oc2cccc(CO)c21 :: 15

P. O=C1c2ccccc2S(=O)(=O)c2ccc(Cl)cc21
Q. [N-]=[N+]=NCc1cccc2c1S(=O)(=O)c1ccccc1O2
query: From the items above, decide which of P and Q has the lower inhibition at 1 µM reading. Select an item and report its label.
result: P
(P: 23%, Q: 66%)
